# Assay Method Text: Property forecast index (PFI = ChromLogD7.4 + aromatic rings)
# Assay type: physicochemical
Items are presented alongside their recorded PFI.

> print(dat)
                                   molecule  value
1  COc1ccc(N2C(=O)c3[nH]nc(-c4ccc(CC(C)C)cc4)c3C2c2ccc(F)cc2)cc1 (centres unmarked)   11.4

Please report the recorded PFI for COc1ccc(N2C(=O)c3[nH]nc(CC(C)C)c3C2C2CCN(Cc3ccccc3)CC2)cc1 (centres unmarked) .
9.0

Moving on to CC(C)Cc1n[nH]c2c1C(c1ccc(F)cc1)N(c1cccnc1)C2=O (centres unmarked)
7.2

Same again, this time with CCCCc1n[nH]c2c1C(c1ccc(F)cc1)N(c1ccc(OC)cc1)C2=O (centres unmarked)
8.4

Moving on to the next molecule: COc1ccccc1C1c2c(CC(C)C)n[nH]c2C(=O)N1c1ccc(N(C)C)cc1 (centres unmarked)
8.6

# iterate: COc1ccc(N2C(=O)c3[nH]nc(CC(C)C)c3C2c2ccnnc2)cc1 (centres unmarked)
5.5

Now the molecule COc1ccc(N2C(=O)c3[nH]nc(CC(C)C)c3C2c2ccccn2)cc1 (centres unmarked)
7.1

Try this molecule next: COC1CCC(N2C(=O)c3[nH]nc(CC(C)C)c3C2c2ccc(F)cc2)CC1 (centres unmarked)
7.3

Another: COc1ccccc1N1C(=O)c2[nH]nc(CC(C)C)c2C1c1ccc(F)cc1 (centres unmarked)
8.5

Another: COc1ccc(CN2C(=O)c3[nH]nc(CC(C)C)c3C2c2ccc(F)cc2)cc1 (centres unmarked)
9.0

Same read-out for COc1ccc(N2C(=O)c3[nH]nc(CC(C)C)c3C2c2ccncn2)cc1 (centres unmarked) ?
6.3

Here is the next molecule: COc1ccc(N2C(=O)c3[nH]nc(CC(C)C)c3C2c2ccccc2OC)cn1 (centres unmarked)
8.0

And COc1ccc(N2C(=O)c3[nH]nc(CC(C)(C)C)c3C2c2ccc(F)cc2)cc1 (centres unmarked) ?
9.0

// query: CC(C)Cc1n[nH]c2c1C(c1ccc(F)cc1)N(c1ccccn1)C2=O (centres unmarked)
8.5

Repeat with COc1ccc(N2C(=O)c3[nH]nc(CC(C)C)c3C2c2cccs2)cc1 (centres unmarked)
8.2

Another molecule: COc1ccc(N2C(=O)c3[nH]nc(CCc4ccccc4)c3C2c2ccc(F)cc2)cc1 (centres unmarked)
9.7

Next record, please: COc1ccc(N2C(=O)c3[nH]nc(CC(C)C)c3C2c2cccc(C(F)(F)F)c2)cc1 (centres unmarked)
8.9

###

# Assay Method Text: Property forecast index (PFI = ChromLogD7.4 + aromatic rings)
# Type: physicochemical
Is PFI at least 9? Then true (1). If not, false (0).

> print(dat)
                                    molecule  class.label
 1  Cc1cc(F)ccc1C1c2c(CC(C)C)n[nH]c2C(=O)N1c1ccc(Br)cc1 (centres unmarked) [Compound 76]     true (1)
 2  COc1ccc(N2C(=O)c3[nH]nc(CC(C)C)c3C2c2ccsc2)cc1 (centres unmarked) [Compound S3]    false (0)
 3  COc1ccc(N2C(=O)c3[nH]nc(CC(C)C)c3C2c2ccccc2OC)cc1F (centres unmarked) [Compound 72]    false (0)
 4  CC(C)Cc1n[nH]c2c1C(c1ccc(F)cc1)N(c1ccc3c(c1)OCCO3)C2=O (centres unmarked) [Compound 45]    false (0)
 5  COc1ccc(N2C(=O)c3[nH]nc(CC(C)C)c3C2c2ccccc2OC)cc1 (centres unmarked) [Compound 57]    false (0)
 6  CC(C)Cc1n[nH]c2c1C(c1ccc(F)cc1)N(c1ccc(OC(F)(F)F)cc1)C2=O (centres unmarked) [Compound 20]     true (1)
 7  CC(C)Cc1n[nH]c2c1C(c1ccc(F)cc1)N(c1ccc3c(c1)OCO3)C2=O (centres unmarked) [Compound 44]    false (0)
 8  COc1ccc(N2C(=O)c3[nH]nc(CC(C)C)c3C2C2CCCCC2)cc1 (centres unmarked) [Compound 52]    false (0)
 9  COc1ccc(N2C(=O)c3[nH]nc(CC(C)C)c3C2c2ccc(F)cc2)cn1 (centres unmarked) [Compound 31]    false (0)
10  COc1ccccc1C1c2c(CC(C)C)n[nH]c2C(=O)N1c1ccc(Br)cc1 (centres unmarked) [Compound 75]     true (1)

Textbook exercise: given the entry COc1cc(F)ccc1C1c2c(CC(C)C)n[nH]c2C(=O)N1c1ccc(Br)cc1 (centres unmarked) [Compound 77] , state whether its PFI is greater than or equal to 9.
true (1)

Entry Cc1cc(F)ccc1C1c2c(CC(C)C)n[nH]c2C(=O)N1c1ccc2c(c1)OCO2 (centres unmarked) [Compound 70] please
false (0)

Item: COc1ccc(N2C(=O)c3[nH]nc(CC(C)C)c3C2c2cccc(F)c2)cc1 (centres unmarked) [Compound 58]
false (0)

From: patent US20230381142A1
